These entries and their values trace back to PubChem BioAssay (NCI).

Test system: 786-0 renal
assay.summary: NCI tumour cell line growth inhibition, 48 h; in the data active means GI50 below about 0.43 µM; inactive means the rest
Your answer must be one of the following: Yes (active), No (inactive)

Problem: # fetch the recorded call for COc1ccc2c(c1)nc1n2C(c2ccc(F)cc2)SC1 (stereo not given) here
Solution: No

Problem: Can you check CN(C)C/C=C/C(=O)Nc1ccc(C(=O)N2CCC[C@@H](Nc3ncc(Cl)c(-c4c[nH]c5ccccc45)n3)C2)cc1 next?
Solution: No

Problem: Try CCc1cccc(CC)c1/C=C/c1cncc(C(=O)NC)c1 next.
Solution: No

Problem: Follow-up item: C1=C2CNCC3=Cc4ccc5ccccc5c4OC23Oc2c1ccc1ccccc21
Solution: No

Problem: Note, next up: NC(N)=N/N=C/c1c(-c2ccc(Cl)c([N+](=O)[O-])c2)nc2n1CCS2
Solution: No

Problem: Entry to check: COc1ccc(-c2cc(/C=C/C(=O)c3cc(OC)c(OC)c(OC)c3)[nH]n2)cc1OC
Solution: No

Problem: Consider next the compound COc1ccccc1/C=C\C(=O)c1ccccc1 in the same way.
Solution: No

Problem: Also COc1ccc(NC(=O)c2sc3nc4c(cc3c2N)CCCC4)cc1 ?
Solution: Yes

Problem: Try the compound O=C(O)C1C(C(=O)O)C2(Cl)C(Cl)=C(Cl)C1(Cl)C2(Cl)Cl.[Cd] (stereo not given)
Solution: No

Problem: Follow-up item: Cc1cc(NC(=O)NC(=O)c2ccccc2N(C)C)ccc1Oc1ncc(Br)cn1
Solution: Yes

Problem: Do the same for CCC(=O)c1cc([N+](=O)[O-])c(Br)s1 please
Solution: No

Problem: Next compound: COc1ccc(C2ONC3=NCCN32)cc1 (stereo not given)
Solution: No

Problem: Param item: Cn1cnc([N+](=O)[O-])c1Sc1nc(N)nc2nc[nH]c12
Solution: No

Problem: Same read-out for C=CC1=CC(C)C[C@]1(O)C(=O)OC (stereo not given in full) ?
Solution: No

Problem: Do the same for COc1ccc(C(=O)C[C@]2(O)C(=O)Nc3c(Cl)ccc(Cl)c32)cc1 please
Solution: No

* * *

Task for the reader: assign each of the following molecules its reported TGI.
Tested on: RPMI-8226 leukemia
assay.summary: NCI tumour cell line growth inhibition, 48 h

Problem: Short answer please: TGI, RPMI-8226 leukemia, entry COc1ccc2[nH]c3c(=O)[nH]ncc3c2c1
Solution: > 100 µM

Problem: // next record COc1ccc(C=Nc2ccc(-c3nc4ccccc4[nH]3)cc2)cc1OC
Solution: > 100 µM

Problem: Another: O=C(CSc1nc2ccc(I)cc2c(=O)n1Cc1ccccc1)NN1C(=O)CCC1=O
Solution: > 100 µM

* * *

Assign TGI to each entry below.
System: BT-549 breast
assay.summary: NCI tumour cell line growth inhibition, 48 h

Problem: Query: TGI; subject: [N-]=[N+]=C(C(=O)C(=[N+]=[N-])C(=O)c1ccccc1)C(=O)c1ccccc1
Solution: > 100 µM

Problem: Also need O=[N+]([O-])c1ccc(NS(=O)(=O)C(F)(F)F)cc1 , thanks.
Solution: > 100 µM

Problem: Now this one: COC(=O)c1ccc(/C=C2\CCc3ccccc3C2=O)cc1
Solution: > 100 µM

* * *

System: TK-10 renal
assay.summary: NCI tumour cell line growth inhibition, 48 h
recorded.endpoint: TGI

Problem: What TGI value was documented for this molecule, C/C(=N\Nc1ccccc1)C(CN(C)C)C(c1ccccc1)c1c(O)c2ccccc2oc1=O (stereo not given) ?
Solution: > 100 µM

Problem: Further, for O=C(O)[C@@H]1CCCC[C@@H]1C(=O)N(C1CCCCC1)C1CCCCC1 ?
Solution: > 100 µM

Problem: Follow-up entry: O=C1C(c2ccccc2)=C(c2ccccc2)[C@H](c2ccccc2)[C@]1(Cc1nnn(-c2ccc([N+](=O)[O-])cc2)c1N1CCOCC1)c1ccccc1
Solution: > 37.5 µM

Problem: Request: CC(C)(C)c1ccc(-c2nnc(-c3cc(C#N)cc(-c4nnc(-c5ccc(C(C)(C)C)cc5)o4)c3)o2)cc1
Solution: > 100 µM

Problem: Next molecule: CC(=O)Oc1ccc(C2(c3ccc(OC(C)=O)cc3)C(=O)Nc3ccccc32)cc1
Solution: > 100 µM

* * *

System: U251 CNS
assay.summary: NCI tumour cell line growth inhibition, 48 h
Please provide measured TGI for the entries that follow.

Problem: // lookup TGI for CCCCCCCCCC(=O)Oc1cccc2onc(C)c12
Solution: > 100 µM

Problem: Then this molecule: COC(=O)c1c(OC)cc2cc3c(c(O)c2c1C)C(=O)C1(O)C(=O)C=C(OC)C(OC(=O)CC(C)N)=C1C3=O (stereo not drawn)
Solution: > 100 µM

Problem: Also, C[N+](C)=c1nc(N2CCOCC2)ss1 please.
Solution: > 100 µM

* * *

Test system: HOP-92 NSCLC
assay.summary: NCI tumour cell line growth inhibition, 48 h
Task for the reader: assign each of the following compounds its reported TGI.
Report only the number, with the unit µM understood.

Problem: Any idea what its TGI is? The compound is COC(=O)c1cc2c3c(ccc2[nH]1)N(C(=O)c1cc2c4c(ccc2[nH]1)N(C(=O)c1cc2c5c(ccc2[nH]1)N(C(N)=O)CC5)CC4)CC3
Solution: 7.31

Problem: Also, COc1ccc(C(=O)c2ccc(-n3cc(/C=C/[N+](=O)[O-])c4ccccc43)cc2)cc1 please.
Solution: 34.9

Problem: Similarly, CC(C)CCCC(C)[C@H]1CC[C@H]2N=C(Nc3ccccc3)CCC[C@]12C (stereo not given in full) ?
Solution: 9.42

Problem: Further, for CCOc1ccc(-c2oc(/C=N/NS(=O)(=O)c3ccc(C)cc3)c([N+](=O)[O-])c2-c2ccc(OCC)cc2)cc1 ?
Solution: 31.5

Problem: Follow-up item: O=c1oc2ccc(Cl)cc2cc1-c1cn2ccsc2n1
Solution: 64.3

Problem: Also CCCCCCOc1ccc(C(=N)N(CCCC)CCCC)c2ccccc12 , if possible.
Solution: 2.6

* * *

Kindly state GI50 for each of the entries shown.
Tested on: MALME-3M melanoma
assay.summary: NCI tumour cell line growth inhibition, 48 h

Problem: Form field: reported GI50 of O=C(Nc1cc(S(=O)(=O)c2ccc(Cl)cc2)ccc1Cl)c1cc(I)cc(I)c1O
Solution: 21.1 µM

Problem: Query CC(C)(CO)N=Cc1ccccc1[O-].CC(C)(CO)N=Cc1ccccc1[O-].[Co+2] next
Solution: 49.5 µM

Problem: # repeat for O=C(O)C1C(C(=O)O)C2(Cl)C(Cl)=C(Cl)C1(Cl)C2(Cl)Cl.[Cd] (centres undefined)
Solution: 2.33 µM

Problem: Same read-out for CC[C@H](C)[C@H](NC(=O)[C@H]1CCCCN1C)C(=O)N(C)[C@H](C[C@@H](OC(C)=O)c1nc(C(=O)N[C@@H](Cc2ccccc2)C[C@H](C)C(=O)OC)cs1)C(C)C ?
Solution: 0.442 µM

* * *

Test system: CCRF-CEM leukemia
assay.summary: NCI tumour cell line growth inhibition, 48 h
recorded.endpoint: TGI

Problem: Return reported TGI; argument: CCCn1cnc2c(SCc3ccccc3)nc(N)nc21
Solution: > 100 µM

Problem: Repeat for the following molecule: COC(=O)c1ccc(/C=C2\CCc3ccccc3C2=O)cc1
Solution: > 100 µM

Problem: Next record, please: O=C1/C(=C\c2cccc(Oc3ccccc3)c2)SC(c2ccccc2)N1c1cccc([N+](=O)[O-])c1 (centres undefined)
Solution: 81.2 µM

Problem: What about this molecule? CN(C)C(=O)SC1=C(c2c(Cl)cccc2Cl)C(=O)c2ccccc21
Solution: 9.27 µM

* * *

System: HOP-92 NSCLC
assay.summary: NCI tumour cell line growth inhibition, 48 h
Provide the recorded TGI for the entries that follow.

Problem: Short answer please: TGI, HOP-92 NSCLC, entry O=S(=O)(O)C1CCC(O)C2[N-]CCCC21.O=S(=O)(O)C1CCC(O)C2[N-]CCCC21.[Zn+2] (configuration not stated)
Solution: > 100 µM

Problem: How about CCc1cccc(CC)c1/C=C/c1cncc(C(=O)NC)c1 ?
Solution: > 25 µM

Problem: Request: CCOC(=O)CCCn1cc(C(=O)OC)nn1
Solution: > 100 µM

Problem: Thanks! And c1ccc(NC[Si]23OCCN(CCO2)CCO3)cc1 ?
Solution: > 100 µM

Problem: Now consider CC(=O)c1ccc(NC(=O)CSc2nc(C)nc3c2sc(=S)n3-c2ccccc2)cc1 .
Solution: > 3.16 µM

Problem: Thanks! And COc1ccc(-c2c3ccccc3c(-c3ccc(OCCCCCBr)cc3)c3ccccc23)cc1 ?
Solution: > 100 µM

Problem: Same again, this time with Cc1ccccc1NC(=O)C(=O)CC(=O)c1ccc([N+](=O)[O-])cc1
Solution: > 100 µM

* * *

Test system: OVCAR-5 ovarian
assay.summary: NCI tumour cell line growth inhibition, 48 h
recorded.endpoint: TGI

Problem: For CCOC(=O)c1nc2ccccc2nc1NCc1ccc(Cl)cc1Cl , what is its reported TGI?
Solution: > 100 µM

Problem: Next compound: CC(=O)OCCC(O[Si](c1ccccc1)(c1ccccc1)C(C)(C)C)C(C)(C)O (stereo not drawn)
Solution: > 100 µM

Problem: Entry to check: O=C1CC2(CCNCC2)C(=O)N1N1CCOCC1
Solution: > 100 µM
